Recorded values, source patent US9765037B2.

System: colorectal carcinoma (HC 2998)
assay_explanation: Growth inhibition of human cell line HC 2998
settings: 10 μM
Catalogue of Cell Toxicity HCC2998, % at 10 μM values

Examples with answers:
query_smiles: CCCCOc1ccc2cc(-c3nn(CC4CCNCC4)c4ncnc(N)c34)ccc2c1
observed_value: <30% at 10 μM

query_smiles: CCCOc1ccc2cc(-c3nn(CC4CCNCC4)c4ncnc(N)c34)ccc2c1
observed_value: 30% at 10 μM

query_smiles: COc1ccc2cc(-c3nn(C(C)C)c4ncnc(N)c34)ccc2c1
observed_value: <30% at 10 μM

Request: What measured Cell Toxicity HCC2998, % at 10 μM goes with Nc1ncnc2c1c(Cc1cccc3ccccc13)nn2CCC1CCNCC1 ?
Response: <30% at 10 μM

Request: What measured Cell Toxicity HCC2998, % at 10 μM goes with CC(C)n1nc(-c2cnc3ccccc3c2)c2c(N)ncnc21 ?
Response: <30% at 10 μM

* * *

assay_explanation: Solubility in buffers of various pH
Format: physicochemical
settings: buffer, pH 6.5, aqueous buffer; read-out: Experimental Solubility pH 6.5
property: solubility (µM)
# number only, unit µM dropped from output

compound: COc1ccc(-c2nn(C(C)(C)C)c3ncnc(N)c23)cc1C [Compound 132]
solubility (µM): 3.8

compound: Nc1ncnc2c1c(-c1ccc3oc(-c4ccccc4)nc3c1)nn2CC1CCNCC1 [Compound 120]
solubility (µM): 44

compound: CC(C)(C)c1nc(-c2ccc3ccccc3c2)c2c(N)nccn12 [Compound 84]
solubility (µM): 26

compound: CCOc1ccc2cc(-c3nc(C(C)(C)C)n4ccnc(N)c34)ccc2c1 [Compound 69]
solubility (µM): 3

Request: What measured solubility goes with CC(C)COc1ccc2cc(-c3nn(CC4CCN(C)CC4)c4ncnc(N)c34)ccc2c1 [Compound 124] ?
Response: 41

Request: What measured solubility goes with CCOc1ccc2cc(-c3nn(C4CCN(C)CC4)c4ncnc(N)c34)ccc2c1 [Compound 148] ?
Response: 56

Request: What measured solubility goes with C=CCOc1ccc2cc(-c3nn(C(C)C)c4ncnc(N)c34)ccc2c1 [Compound 41] ?
Response: 4.4

Request: What measured solubility goes with CCOc1ccc2cc(-c3nn(C4CCN(CC)CC4)c4ncnc(N)c34)ccc2c1 [Compound 149] ?
Response: 75

* * *

target_desc: PfCDPK4 (Plasmodium falciparum (isolate 3D7), UniProt Q8IBS5)
assay_explanation: biochemical
property: EC50 (nM)
# number only, unit nM dropped from output

Examples with answers:
query_smiles: COc1ccc2cc(-c3nc(C(C)(C)C)n4ccnc(N)c34)ccc2c1
EC50 [nM]: 65.2
//
query_smiles: COc1ccc2cc(-c3nn(CC4CCNCC4)c4ncnc(N)c34)ccc2c1
EC50 [nM]: 18.8
//
query_smiles: Cc1cccc2[nH]c(-c3nn(C(C)C)c4ncnc(N)c34)cc12
EC50 [nM]: 579
//
query_smiles: COc1ccc2cc(-c3nn(C(C)C)c4ncnc(N)c34)ccc2c1
EC50 [nM]: 41.4
//
query_smiles: CCOc1ccc2cc(-c3nn(C4CCN(C)CC4)c4ncnc(N)c34)ccc2c1
EC50 [nM]: 39

Request: Given the entry CC(C)n1nc(-c2cc3ccccc3[nH]2)c2c(N)ncnc21 , what EC50 was observed with PfCDPK4 (Plasmodium falciparum (isolate 3D7), UniProt Q8IBS5)?
Response: 337

Request: Given the entry CC(C)n1nc(-c2ccc3cc(OCc4cccc(Cl)c4)ccc3c2)c2c(N)ncnc21 , what EC50 was observed with PfCDPK4 (Plasmodium falciparum (isolate 3D7), UniProt Q8IBS5)?
Response: 1430
